The reported numbers originate from the Immune Epitope Database (IEDB).

biological target: HLA-C*12:03; test: IEDB peptide-MHC binding, purified MHC/direct/fluorescence; filed as Kd, often an IC50 or EC50 that approximates it; bounds were set here for any values at or beyond the usual limits of such assays; settings: source organism: Vaccinia virus WR
measurement_type: Kd (µM)
Your answer should be a plain number; it is taken to be in µM.

Return reported Kd. Input sequence: "YLYETYHLI"
0.155

====

biological target: HLA-B*27:03; assay: IEDB peptide-MHC binding, purified MHC/competitive/fluorescence; filed as Kd, often an IC50 or EC50 that approximates it; bounds were set here for any values at or beyond the usual limits of such assays; settings: source organism: Mus musculus
measurement_type: Kd

Return reported Kd. Input sequence: "VLWKSYPLV"
≥ 20 µM

====

target: HLA-A*30:01; test: IEDB peptide-MHC binding, purified MHC/competitive/radioactivity; filed as Kd, often an IC50 or EC50 that approximates it; bounds were set here for any values at or beyond the usual limits of such assays; details: source organism: Dengue virus 4 Philippines/H241/1956
measurement_type: pKd
# pKd = -log10(concentration in molar units)

Return reported pKd. Input sequence: "LFVVTLIPLC"
6.38

====

biological target: HLA-A*11:01; experiment: IEDB peptide-MHC binding, purified MHC/competitive/radioactivity; filed as Kd, often an IC50 or EC50 that approximates it; bounds were set here for any values at or beyond the usual limits of such assays; details: source organism: Vaccinia virus WR
pKd: −log10 of the molar value.
// bucketize pKd: lower segment: < 6; middle segment: ≥ 6 and < 7; upper segment: ≥ 7

construct_sequence | class_label
GSIKIKQDVR | middle segment
EILKINSVKY | lower segment
DAEACYIYK | upper segment
FIRIIRPDY | lower segment
YIRRNMINK | middle segment
TIKYSNDNRY | lower segment

Kindly identify the class of "AQQFANVISK" .
upper segment

Kindly identify the class of "EILRNYLRLY" .
lower segment

Kindly identify the class of "PLFHGGEPIK" .
lower segment

====

biological target: HLA-B*18:01; assay: IEDB peptide-MHC binding, purified MHC/competitive/fluorescence; filed as Kd, often an IC50 or EC50 that approximates it; bounds were set here for any values at or beyond the usual limits of such assays; details: source organism: Brucella abortus S19
measurement_type: Kd

Return reported Kd. Input sequence: "YWMGGTTYF"
≥ 20 µM

====

molecular target: HLA-A*24:02; assay: IEDB peptide-MHC binding, purified MHC/competitive/fluorescence; bounds were set here for any values at or beyond the usual limits of such assays; conditions: source organism: Homo sapiens
measurement_type: pIC50
# pIC50 = -log10(concentration in molar units)

Print HLA-A*24:02 pIC50 for "LPSCPTNFCIF" .
5.95

====

Listed here: items and their measured pKd.
target: HLA-B*46:01; assay: IEDB peptide-MHC binding, purified MHC/competitive/fluorescence; filed as Kd, often an IC50 or EC50 that approximates it; bounds were set here for any values at or beyond the usual limits of such assays; details: source organism: Entamoeba histolytica HM-1:IMSS
pKd: −log10 of the molar value.

construct_sequence | measurement_type | test_result
EVRKAIEFV | pKd | ≤ 4.70

Moving on to the next sequence.
Return reported pKd. Input sequence: "WAKLLKQKW"
≤ 4.70
